B1: POLD4 (parent)
chain: ITDSYPVVKRREGPAGHSKGELAP

variants of: B1; experiment: protein stability index of a GFP-peptide fusion (GPS, HEK-293T) (PSI 1-6); higher = more stable; settings: c terminus: a fixed tail appended;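 further: lentivirally expressed fusions sorted by FACS into six bins by GFP to DsRed ratio, PSI derived from sequencing read proportions per bin multiplied by bin number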
Record form. Attribute: protein stability index. Fill in for each entry.
Answer field: number only, no words.

Sure, the documented protein stability index for R11F is 2.43

Sure, the documented protein stability index for A23D is 2.69

Sure, the documented protein stability index for H17I is 3.49

Sure, the documented protein stability index for H17Q is 3.51

Sure, the documented protein stability index for P6N is 4.51

Sure, the documented protein stability index for G13S is 3.22

Sure, the documented protein stability index for G16N is 2.82

Sure, the documented protein stability index for V7E is 5.27

Sure, the documented protein stability index for E12F is 1.86

Sure, the documented protein stability index for G20H is 2.22

Sure, the documented protein stability index for R10K is 2.39

Sure, the documented protein stability index for E21T is 2.75

Sure, the documented protein stability index for H17N is 3.54

Sure, the documented protein stability index for R10M is 3.16

Sure, the documented protein stability index for R11V is 2.69

Sure, the documented protein stability index for P24A is 2.56

Sure, the documented protein stability index for R10E is 4.8

Sure, the documented protein stability index for K9D is 4.63

Sure, the documented protein stability index for P24C is 3.13

Sure, the documented protein stability index for A23I is 3.24

Sure, the documented protein stability index for G20E is 2.93

src = the supplement of paper PMC10567573
